tested system: Histo-blood group ABO system transferase (Homo sapiens)
Sequence (P16442 whole entry): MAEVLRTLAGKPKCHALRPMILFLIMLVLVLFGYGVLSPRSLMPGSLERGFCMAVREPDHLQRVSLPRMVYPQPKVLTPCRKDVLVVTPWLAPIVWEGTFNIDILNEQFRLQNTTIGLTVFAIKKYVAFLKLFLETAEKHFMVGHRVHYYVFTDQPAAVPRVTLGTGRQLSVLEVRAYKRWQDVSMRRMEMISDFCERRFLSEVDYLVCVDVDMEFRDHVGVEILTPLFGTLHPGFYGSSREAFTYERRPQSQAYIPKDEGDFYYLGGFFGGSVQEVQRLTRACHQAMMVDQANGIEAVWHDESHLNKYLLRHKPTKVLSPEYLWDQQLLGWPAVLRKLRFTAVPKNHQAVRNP
protocol summary: Inhibition of GTB (unknown origin)
measurement label: pKi
# pKi is unitless: minus log10 of the molar concentration; print number only

Lookup: Return reported pKi; argument: c1ccc(-c2nsc(N3CCNCC3)n2)cc1
Found: 3.10

---

tested system: Beta-galactoside alpha-2,6-sialyltransferase 1 (Rattus norvegicus, UniProt P13721)
Sequence (P13721 whole entry): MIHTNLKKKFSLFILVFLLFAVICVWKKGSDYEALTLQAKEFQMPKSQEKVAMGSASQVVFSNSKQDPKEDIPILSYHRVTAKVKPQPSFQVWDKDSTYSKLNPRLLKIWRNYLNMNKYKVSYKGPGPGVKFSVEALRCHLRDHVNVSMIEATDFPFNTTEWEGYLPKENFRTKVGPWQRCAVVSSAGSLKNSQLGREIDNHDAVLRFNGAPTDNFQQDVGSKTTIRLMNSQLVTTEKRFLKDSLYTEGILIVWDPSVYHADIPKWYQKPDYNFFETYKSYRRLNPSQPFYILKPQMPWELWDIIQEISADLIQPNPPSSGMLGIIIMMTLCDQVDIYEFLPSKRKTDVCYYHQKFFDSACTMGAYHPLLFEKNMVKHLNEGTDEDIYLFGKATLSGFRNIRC
measurement label: IC50 (µM)
Just the number in µM, nothing appended.

Lookup: // fetch Beta-galactoside alpha-2,6-sialyltransferase 1 (Rattus norvegicus, UniProt P13721) IC50 for O=c1c(O)c(-c2ccc(O)c(O)c2)oc2ccccc12
Found: 1.9

---

tested system: UniProt:Q9BYC5
Sequence (Q9BYC5 whole entry): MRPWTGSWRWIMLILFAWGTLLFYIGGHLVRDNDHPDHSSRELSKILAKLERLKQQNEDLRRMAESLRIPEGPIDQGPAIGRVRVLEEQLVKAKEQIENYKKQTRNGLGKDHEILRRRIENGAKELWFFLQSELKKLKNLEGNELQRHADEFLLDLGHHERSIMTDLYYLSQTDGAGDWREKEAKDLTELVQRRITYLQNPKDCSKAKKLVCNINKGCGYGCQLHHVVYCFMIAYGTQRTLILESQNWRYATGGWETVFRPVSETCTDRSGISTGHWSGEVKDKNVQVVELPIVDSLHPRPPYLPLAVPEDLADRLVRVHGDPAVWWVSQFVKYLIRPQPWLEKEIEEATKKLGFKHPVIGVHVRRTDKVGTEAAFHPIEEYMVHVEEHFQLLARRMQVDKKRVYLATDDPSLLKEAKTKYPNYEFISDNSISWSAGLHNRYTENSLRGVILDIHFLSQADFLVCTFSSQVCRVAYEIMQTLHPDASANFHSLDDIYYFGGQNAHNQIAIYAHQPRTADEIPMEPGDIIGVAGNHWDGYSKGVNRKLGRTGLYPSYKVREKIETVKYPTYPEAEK
protocol summary: Inhibition of FucT-8 in human blood platelets
Ki: recorded values
Hi, when you answer, please include the unit after the number. Thanks!

Nc1c(S(=O)(=O)O)cc(Nc2ccc(Nc3nc(Cl)nc(Nc4ccccc4S(=O)(=O)O)n3)c(S(=O)(=O)O)c2)c2c1C(=O)c1ccccc1C2=O
11 µM

Then this compound:
Lookup: Return reported Ki; argument: O=S(=O)(O)c1cc(Nc2nc(Cl)nc(Nc3ccc(Nc4nc(Cl)nc(Nc5cc(S(=O)(=O)O)cc6cc(S(=O)(=O)O)c(/N=N/c7ccccc7S(=O)(=O)O)c(O)c56)n4)cc3)n2)c2c(O)c(/N=N/c3ccccc3S(=O)(=O)O)c(S(=O)(=O)O)cc2c1
Found: 2 µM

---

tested system: Ceramide glucosyltransferase (Homo sapiens) (UniProt Q16739)
Sequence (whole entry): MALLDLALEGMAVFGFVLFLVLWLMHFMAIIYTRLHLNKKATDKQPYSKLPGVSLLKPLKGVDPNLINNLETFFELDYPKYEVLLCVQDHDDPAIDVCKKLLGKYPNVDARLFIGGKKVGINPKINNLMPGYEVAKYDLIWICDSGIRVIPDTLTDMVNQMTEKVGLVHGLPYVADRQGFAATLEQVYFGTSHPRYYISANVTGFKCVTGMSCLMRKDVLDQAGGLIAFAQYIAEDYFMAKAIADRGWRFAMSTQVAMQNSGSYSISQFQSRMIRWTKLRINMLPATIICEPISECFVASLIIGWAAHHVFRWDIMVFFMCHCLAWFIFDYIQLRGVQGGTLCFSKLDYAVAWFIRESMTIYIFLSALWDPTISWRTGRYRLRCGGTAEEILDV
protocol summary: Inhibition of glucosylceramide synthase (unknown origin) at 5 uM
measurement label: inhibition (%)
Just the number in %, nothing appended.

Lookup: Return reported inhibition; argument: CCCCCCCCCCCCCCCC(=O)N[C@H](CN1CCCC1)[C@H](O)c1ccccc1
Found: 50

Lookup: Return reported inhibition; argument: CCCCCCCCCCCCCCCC(=O)N[C@H](CN1CCOCC1)[C@H](O)c1ccccc1
Found: 32

Lookup: Return reported inhibition; argument: CCCCCCCCCCCCC/C=C/[C@@H](O)[C@@H](CN1CCOCC1)NC(=O)CCCCCCCCCCCCCCC
Found: 73

---

tested system: CMP-N-acetylneuraminate-beta-1,4-galactoside alpha-2,3-sialyltransferase (Rattus norvegicus, UniProt Q02734)
Sequence (Q02734 whole entry): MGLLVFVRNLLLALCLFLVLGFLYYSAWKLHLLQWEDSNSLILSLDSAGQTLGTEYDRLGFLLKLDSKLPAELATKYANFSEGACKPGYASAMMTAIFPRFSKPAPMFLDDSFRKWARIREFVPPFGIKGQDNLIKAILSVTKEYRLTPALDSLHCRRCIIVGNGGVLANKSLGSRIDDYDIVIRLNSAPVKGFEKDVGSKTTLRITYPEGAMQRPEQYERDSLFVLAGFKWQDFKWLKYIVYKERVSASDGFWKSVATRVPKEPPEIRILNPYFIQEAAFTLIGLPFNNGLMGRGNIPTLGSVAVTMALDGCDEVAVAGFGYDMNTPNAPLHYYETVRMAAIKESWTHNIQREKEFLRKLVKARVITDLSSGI
measurement label: pIC50
# pIC50 is unitless: minus log10 of the molar concentration; print number only

Lookup: Return reported pIC50; argument: O=c1cc(-c2ccc(O)c(O)c2)oc2ccccc12
Found: 5.85

---

protocol summary: Inhibition of human beta-1,4-GalT
measurement label: pKi
# pKi is unitless: minus log10 of the molar concentration; print number only

Lookup: Return reported pKi; argument: CC(=O)N[C@H]1[C@H](O[C@H]2[C@@H](O)[C@@H](CO)O[C@@H](OCc3ccc4ccccc4c3)[C@@H]2O)O[C@H](CO)C[C@@H]1O
Found: 3.72

---

IC50: recorded values
tested system: 4-galactosyl-N-acetylglucosaminide 3-alpha-L-fucosyltransferase FUT6 (Homo sapiens)
Sequence (P51993 whole entry): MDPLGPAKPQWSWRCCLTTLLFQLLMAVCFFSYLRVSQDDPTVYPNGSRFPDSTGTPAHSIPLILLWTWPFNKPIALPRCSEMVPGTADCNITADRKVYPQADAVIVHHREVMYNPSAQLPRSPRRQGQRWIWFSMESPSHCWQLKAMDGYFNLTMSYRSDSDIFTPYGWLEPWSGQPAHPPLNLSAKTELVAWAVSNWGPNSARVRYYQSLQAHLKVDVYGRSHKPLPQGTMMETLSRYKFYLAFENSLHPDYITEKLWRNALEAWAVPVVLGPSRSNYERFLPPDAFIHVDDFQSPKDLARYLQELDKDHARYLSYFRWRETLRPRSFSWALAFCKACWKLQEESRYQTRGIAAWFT

Here's what some known entries look like.
C[C@@H]1CC[C@H]2C(C)(C)[C@H](O)CC[C@]2(C)[C@@]12Cc1c(O)cc(C=O)c(C=O)c1O2
20.9 µM
C[C@@H]1CC[C@H]2C(C)(C)[C@H](O)[C@H](O)C[C@]2(C)[C@@]12Cc1c(O)cc3c(c1O2)COC3=O
> 200 µM

Then this compound:
Lookup: Return reported IC50; argument: C[C@@H]1CC[C@H]2C(C)(C)[C@H](O)CC[C@]2(C)[C@@]12Cc1c(O)cc3c(c1O2)COC3=O
Found: > 200 µM

---

tested system: CMP-N-acetylneuraminate-beta-1,4-galactoside alpha-2,3-sialyltransferase (Homo sapiens, UniProt Q11203)
Sequence (Q11203 whole entry): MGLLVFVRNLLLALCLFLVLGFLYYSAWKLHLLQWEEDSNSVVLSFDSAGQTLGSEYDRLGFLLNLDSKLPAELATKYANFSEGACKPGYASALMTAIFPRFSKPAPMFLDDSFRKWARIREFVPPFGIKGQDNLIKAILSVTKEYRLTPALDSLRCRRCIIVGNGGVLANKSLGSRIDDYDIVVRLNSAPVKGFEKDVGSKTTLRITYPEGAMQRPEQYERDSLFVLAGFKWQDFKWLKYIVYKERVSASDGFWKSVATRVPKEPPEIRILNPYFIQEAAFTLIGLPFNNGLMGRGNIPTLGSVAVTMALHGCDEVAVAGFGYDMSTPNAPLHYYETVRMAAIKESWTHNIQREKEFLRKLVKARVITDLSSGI
IC50: recorded values
Just the number in µM, nothing appended.

Here's what some known entries look like.
C[C@@H]1CC[C@H]2C(C)(C)[C@H](O)CC[C@]2(C)[C@@]12Cc1c(O)cc(C=O)c(C=O)c1O2
10
C[C@@H]1CC[C@H]2C(C)(C)[C@H](O)[C@H](O)C[C@]2(C)[C@@]12Cc1c(O)cc3c(c1O2)COC3=O
111
C[C@@H]1CC[C@H]2C(C)(C)[C@H](O)CC[C@]2(C)[C@@]12Cc1c(O)cc3c(c1O2)COC3=O
50

Lookup: Return reported IC50; argument: O=C(O[C@H]1Cc2c(O)cc(O)cc2O[C@H]1c1cc(O)c(O)c(O)c1)c1cc(O)c(O)c(O)c1
Found: 2.7

---

tested system: UDP-N-acetylglucosamine--N-acetylmuramyl-(pentapeptide) pyrophosphoryl-undecaprenol N-acetylglucosamine transferase (Escherichia coli (strain K12)) (UniProt P17443)
Sequence (P17443 whole entry): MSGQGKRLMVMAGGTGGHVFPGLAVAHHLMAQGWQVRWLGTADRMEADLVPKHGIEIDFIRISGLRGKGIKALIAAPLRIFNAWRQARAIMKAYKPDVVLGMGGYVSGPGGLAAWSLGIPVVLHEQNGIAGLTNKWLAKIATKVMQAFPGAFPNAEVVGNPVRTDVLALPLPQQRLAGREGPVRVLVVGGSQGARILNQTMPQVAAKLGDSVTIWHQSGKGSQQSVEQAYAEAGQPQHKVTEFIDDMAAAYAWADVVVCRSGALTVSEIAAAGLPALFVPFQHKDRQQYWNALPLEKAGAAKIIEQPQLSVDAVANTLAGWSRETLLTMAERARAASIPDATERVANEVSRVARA
protocol summary: Inhibition of Escherichia coli MurG at 2.5 microg/ml
inhibition: recorded values
Just the number in %, nothing appended.

Here's what some known entries look like.
COc1cc(/C=C2\C(=O)N(c3ccc(Cl)c(C(=O)O)c3)N=C2C)cc([N+](=O)[O-])c1O
54
O=C1N/C(=N/c2ccccc2)S/C1=C/c1cc(Br)cc(Cl)c1O
71
CC1=NN(c2ccc(Cl)c(C(=O)O)c2)C(=O)/C1=C\c1ccc(-c2ccccc2C(=O)O)o1
48
COc1cc(/C=C2\C(=O)NC(=O)N(c3ccc(C)cc3)C2=O)cc([N+](=O)[O-])c1O
72

Then this compound:
Lookup: Return reported inhibition; argument: COc1c(N/C=C2\C(=O)N(c3ccccc3C)N=C2C)cc([N+](=O)[O-])cc1[N+](=O)[O-]
Found: 66

---

tested system: UDP-N-acetylglucosamine--peptide N-acetylglucosaminyltransferase 110 kDa subunit (Homo sapiens, UniProt O15294)
Sequence (O15294 whole entry): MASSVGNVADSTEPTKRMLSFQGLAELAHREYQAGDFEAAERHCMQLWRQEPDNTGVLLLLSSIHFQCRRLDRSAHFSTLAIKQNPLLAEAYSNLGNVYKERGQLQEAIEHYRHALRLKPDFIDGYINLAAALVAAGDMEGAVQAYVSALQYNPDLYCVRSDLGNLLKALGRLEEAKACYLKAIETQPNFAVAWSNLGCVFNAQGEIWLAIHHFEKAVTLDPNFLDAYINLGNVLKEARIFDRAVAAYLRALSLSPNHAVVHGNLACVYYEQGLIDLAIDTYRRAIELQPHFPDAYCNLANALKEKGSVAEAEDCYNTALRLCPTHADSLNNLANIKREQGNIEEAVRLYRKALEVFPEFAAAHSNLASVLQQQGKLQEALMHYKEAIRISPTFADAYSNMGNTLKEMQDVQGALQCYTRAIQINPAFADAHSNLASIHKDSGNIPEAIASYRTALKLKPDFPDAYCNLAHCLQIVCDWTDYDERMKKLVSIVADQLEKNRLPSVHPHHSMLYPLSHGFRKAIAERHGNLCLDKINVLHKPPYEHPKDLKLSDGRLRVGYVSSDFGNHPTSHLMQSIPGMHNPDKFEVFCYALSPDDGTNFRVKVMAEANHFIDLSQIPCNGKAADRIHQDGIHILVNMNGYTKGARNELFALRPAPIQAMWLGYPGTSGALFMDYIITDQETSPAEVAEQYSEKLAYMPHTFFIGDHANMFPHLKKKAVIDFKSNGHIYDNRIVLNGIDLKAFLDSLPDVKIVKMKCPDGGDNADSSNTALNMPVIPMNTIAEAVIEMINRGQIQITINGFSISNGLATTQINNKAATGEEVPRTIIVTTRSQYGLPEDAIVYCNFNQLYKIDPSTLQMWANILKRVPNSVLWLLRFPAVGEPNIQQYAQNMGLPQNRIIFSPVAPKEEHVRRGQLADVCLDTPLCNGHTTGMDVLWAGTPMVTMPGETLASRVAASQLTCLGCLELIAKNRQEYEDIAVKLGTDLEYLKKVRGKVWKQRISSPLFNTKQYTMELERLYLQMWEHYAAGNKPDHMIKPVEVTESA
protocol summary: Inhibition of nucleocytoplasmic OGT (unknown origin)
measurement label: IC50 (µM)
Just the number in µM, nothing appended.

N#Cc1ccc(CSc2nc(-c3cccs3)c3c(c2C(=O)O)CCCC3)cc1
100

Then this compound:
Lookup: Return reported IC50; argument: O=C(O)C1CC(=O)N(CC23CC4CC(CC(C4)C2)C3)/C(=N/c2ccc(Cl)cc2)S1 (configuration not stated)
Found: 53

---

tested system: Alpha-(1,3)-fucosyltransferase 7 (Homo sapiens, UniProt Q11130)
Sequence (Q11130 whole entry): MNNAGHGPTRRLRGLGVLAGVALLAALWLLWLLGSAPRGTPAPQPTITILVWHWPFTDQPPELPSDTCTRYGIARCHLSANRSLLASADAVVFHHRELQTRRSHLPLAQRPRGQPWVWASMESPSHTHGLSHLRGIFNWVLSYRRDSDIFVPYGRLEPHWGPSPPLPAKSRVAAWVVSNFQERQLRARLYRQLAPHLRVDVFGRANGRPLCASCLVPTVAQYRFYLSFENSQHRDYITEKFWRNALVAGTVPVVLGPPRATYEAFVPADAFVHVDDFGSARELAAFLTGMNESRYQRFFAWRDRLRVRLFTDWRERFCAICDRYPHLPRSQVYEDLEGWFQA
protocol summary: Inhibition of FucT-7 (unknown origin)
measurement label: pIC50
# pIC50 is unitless: minus log10 of the molar concentration; print number only

Lookup: Return reported pIC50; argument: O=C(O[C@H]1Cc2c(O)cc(O)cc2O[C@H]1c1cc(O)c(O)c(O)c1)c1cc(O)c(O)c(O)c1
Found: 6.15

---

protocol summary: Inhibition of short OGT (unknown origin)
Parameters: species or system Homo sapiens
IC50: recorded values
Just the number in µM, nothing appended.

Lookup: Return reported IC50; argument: O=C(O)C1CC(=O)N(CC23CC4CC(CC(C4)C2)C3)/C(=N/c2ccc(Cl)cc2)S1 (stereo not drawn)
Found: 30

Lookup: Return reported IC50; argument: O=C(Oc1ccccc1)n1c(=O)oc2ccc(Cl)cc21
Found: 27

Lookup: Return reported IC50; argument: N#Cc1ccc(CSc2nc(-c3cccs3)c3c(c2C(=O)O)CCCC3)cc1
Found: 60
